Measured values drawn from patent US20250074980A1 for this set.

# Test Target: T1, His-tagged CEACAM1 (human, UniProt P13688 35-428)
# T1 construct: 45 kDa SPR analyte; also called CEACAM1-HIS; CEACAM1 analyte
# T1 sequence: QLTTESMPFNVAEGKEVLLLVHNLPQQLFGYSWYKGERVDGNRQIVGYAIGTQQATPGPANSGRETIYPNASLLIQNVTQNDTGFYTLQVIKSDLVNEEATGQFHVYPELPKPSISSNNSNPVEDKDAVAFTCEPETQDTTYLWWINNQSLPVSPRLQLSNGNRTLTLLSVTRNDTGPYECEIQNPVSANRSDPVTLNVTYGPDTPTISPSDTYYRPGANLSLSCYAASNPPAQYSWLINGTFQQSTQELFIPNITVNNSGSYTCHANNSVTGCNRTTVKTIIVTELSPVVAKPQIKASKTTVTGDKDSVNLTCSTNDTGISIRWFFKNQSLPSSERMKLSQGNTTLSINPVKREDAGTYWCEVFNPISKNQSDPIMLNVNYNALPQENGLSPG
# Measurement Description: SPR single-cycle, supernatant IgG captured
Quantity Kind: kon (M⁻¹ s⁻¹)

INSERT INTO results (binder, quantitative_readout) VALUES
  ('CP09E05/CP08E05 (antibody, IgG4, V domains shown, IgG4 (S241P), kappa) VH: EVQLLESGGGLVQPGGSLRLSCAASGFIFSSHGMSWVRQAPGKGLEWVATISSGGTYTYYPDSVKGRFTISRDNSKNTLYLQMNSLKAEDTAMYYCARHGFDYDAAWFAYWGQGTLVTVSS VL: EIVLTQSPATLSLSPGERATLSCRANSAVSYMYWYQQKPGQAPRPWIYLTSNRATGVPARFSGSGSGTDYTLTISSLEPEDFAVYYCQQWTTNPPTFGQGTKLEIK', 100000),
  ('CP09E05/CP08G09 (antibody, IgG4, V domains shown, IgG4 (S241P), kappa) VH: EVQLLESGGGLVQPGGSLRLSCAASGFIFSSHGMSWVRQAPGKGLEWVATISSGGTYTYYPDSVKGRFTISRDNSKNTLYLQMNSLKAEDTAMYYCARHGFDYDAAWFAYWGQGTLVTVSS VL: EIVLTQSPATLSLSPGERATLSCRANSAVSYMYWYQQKPGQAPRPWIYLTSNRATGVPARFSGSGSGTDYTLTISSLEPEDFAVYYCQQWTAFPPTFGQGTKLEIK', 140000),
  ('CP09C02/Vκ8 S29A (antibody, IgG4, V domains shown, IgG4 (S241P), kappa) VH: EVQLLESGGGLVQPGGSLRLSCAASEFTFSDHAMSWVRQAPGKGLEWVATISSGGTYTYYPDSVKGRFTISRDNSKNTLYLQMNSLKAEDTAMYYCARHGFDYDAAWFAYWGQGTLVTVSS VL: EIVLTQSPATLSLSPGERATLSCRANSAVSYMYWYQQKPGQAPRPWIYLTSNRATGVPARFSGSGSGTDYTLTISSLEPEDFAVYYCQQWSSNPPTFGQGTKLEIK', 110000),
  ('CP09E05/CP08E01 (antibody, IgG4, V domains shown, IgG4 (S241P), kappa) VH: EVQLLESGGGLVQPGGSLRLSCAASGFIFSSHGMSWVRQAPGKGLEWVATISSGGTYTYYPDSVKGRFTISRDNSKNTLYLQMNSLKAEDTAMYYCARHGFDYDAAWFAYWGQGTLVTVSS VL: EIVLTQSPATLSLSPGERATLSCRANSAVSYMYWYQQKPGQAPRPWIYLTSNRATGVPARFSGSGSGTDYTLTISSLEPEDFAVYYCQQWTTFPPTFGQGTKLEIK', 130000),
  ('VH1/Vκ8 S29A (antibody, IgG4, V domains shown, IgG4 (S241P), kappa; also called Parent; Parent (VH1/Vκ8 S29A)) VH: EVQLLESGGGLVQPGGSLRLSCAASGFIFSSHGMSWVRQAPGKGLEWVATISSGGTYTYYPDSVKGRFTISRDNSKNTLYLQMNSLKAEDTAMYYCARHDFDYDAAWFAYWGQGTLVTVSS VL: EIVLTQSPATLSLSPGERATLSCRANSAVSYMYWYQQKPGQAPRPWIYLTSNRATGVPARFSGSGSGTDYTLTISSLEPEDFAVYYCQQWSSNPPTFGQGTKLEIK', 96000),
  ('VH1/CP08D02 (antibody, IgG4, V domains shown, IgG4 (S241P), kappa; also called Parent VH/CP08D02) VH: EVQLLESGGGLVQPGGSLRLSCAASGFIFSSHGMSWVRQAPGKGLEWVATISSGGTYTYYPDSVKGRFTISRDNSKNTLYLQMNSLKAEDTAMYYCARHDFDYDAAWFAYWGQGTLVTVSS VL: EIVLTQSPATLSLSPGERATLSCRANSAVSYMYWYQQKPGQAPRPWIYLTSNRATGVPARFSGSGSGTDYTLTISSLEPEDFAVYYCQQWTSFPPTFGQGTKLEIK', 130000),
  ('CP09B03/CP08F05 (antibody, IgG4, V domains shown, IgG4 (S241P), kappa) VH: EVQLLESGGGLVQPGGSLRLSCAASGFTFNAHAISWVRQAPGKGLEWVATISSGGTYTYYPDSVKGRFTISRDNSKNTLYLQMNSLKAEDTAMYYCARHDFDYDAAWFAYWGQGTLVTVSS VL: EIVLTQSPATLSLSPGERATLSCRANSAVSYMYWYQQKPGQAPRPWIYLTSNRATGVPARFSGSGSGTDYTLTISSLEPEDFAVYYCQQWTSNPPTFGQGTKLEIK', 110000),
  ('CP09B03/Vκ8 S29A (antibody, IgG4, V domains shown, IgG4 (S241P), kappa) VH: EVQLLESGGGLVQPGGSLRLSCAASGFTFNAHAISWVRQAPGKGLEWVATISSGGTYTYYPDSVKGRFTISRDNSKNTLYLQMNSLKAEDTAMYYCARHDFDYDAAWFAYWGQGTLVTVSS VL: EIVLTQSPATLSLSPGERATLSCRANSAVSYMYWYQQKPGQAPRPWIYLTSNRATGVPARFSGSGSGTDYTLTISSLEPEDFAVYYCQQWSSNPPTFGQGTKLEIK', 170000),
  ('CP09B03/CP08E01 (antibody, IgG4, V domains shown, IgG4 (S241P), kappa) VH: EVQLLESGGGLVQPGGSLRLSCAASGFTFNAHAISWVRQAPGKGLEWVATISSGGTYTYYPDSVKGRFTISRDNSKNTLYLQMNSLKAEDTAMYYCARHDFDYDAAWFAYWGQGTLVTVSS VL: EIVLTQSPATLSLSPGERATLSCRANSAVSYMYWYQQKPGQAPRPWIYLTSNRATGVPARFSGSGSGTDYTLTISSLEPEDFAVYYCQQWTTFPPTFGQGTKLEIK', 180000),
  ('VH1/CP08E01 (antibody, IgG4, V domains shown, IgG4 (S241P), kappa; also called Parent VH/CP08E01) VH: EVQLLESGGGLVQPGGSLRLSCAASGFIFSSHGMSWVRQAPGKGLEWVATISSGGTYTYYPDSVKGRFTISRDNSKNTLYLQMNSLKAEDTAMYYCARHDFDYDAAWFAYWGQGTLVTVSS VL: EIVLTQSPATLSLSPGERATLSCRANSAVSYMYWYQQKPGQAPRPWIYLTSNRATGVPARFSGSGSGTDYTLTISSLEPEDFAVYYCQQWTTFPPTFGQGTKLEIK', 120000);
